B1: PhoQ; a variant is named by its letters at X, in order, P23837 (parent)
chain: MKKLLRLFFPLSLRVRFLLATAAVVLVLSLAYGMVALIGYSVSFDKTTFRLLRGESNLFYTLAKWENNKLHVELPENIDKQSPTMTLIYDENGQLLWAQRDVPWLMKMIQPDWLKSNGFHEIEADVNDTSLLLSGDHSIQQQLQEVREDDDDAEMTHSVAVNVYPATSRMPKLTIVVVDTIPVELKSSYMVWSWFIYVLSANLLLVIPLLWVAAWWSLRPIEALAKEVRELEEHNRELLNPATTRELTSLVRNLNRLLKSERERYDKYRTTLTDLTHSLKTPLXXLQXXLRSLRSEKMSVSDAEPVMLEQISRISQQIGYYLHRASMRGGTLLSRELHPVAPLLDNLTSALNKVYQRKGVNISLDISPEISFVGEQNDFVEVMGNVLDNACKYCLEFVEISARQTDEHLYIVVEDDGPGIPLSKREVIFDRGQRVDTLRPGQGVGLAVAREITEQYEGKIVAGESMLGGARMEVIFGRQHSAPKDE

Variants of: B1
protocol: enrichment ratio after two sorts for PhoP signalling (ratio (wild type AVST 3.29)); higher = more functional
condition.parameters: with PhoP (E. coli)
In all, about 140,000 sequences were measured (“enrichment ratio after two sorts for PhoP signalling”: median about 0, highest 2% from about 11 on). The list comes from a sample in which the highest values are over-represented; it also holds close analogues and randomly drawn sequences.
enrichment ratio: recorded values
readout.label: enrichment ratio

INSERT INTO measurements (mutation, readout_label, experimental_value) VALUES
  ('ATTK', 'enrichment ratio', 10.4),
  ('AETH', 'enrichment ratio', 0.824),
  ('GNLA', 'enrichment ratio', 7.72),
  ('IHWP', 'enrichment ratio', '≤ 0.25'),
  ('GTGY', 'enrichment ratio', '≤ 0.25'),
  ('YQHC', 'enrichment ratio', '≤ 0.25'),
  ('AQQL', 'enrichment ratio', '≤ 0.25'),
  ('GTCK', 'enrichment ratio', '≤ 0.25'),
  ('ADTM', 'enrichment ratio', '≤ 0.25'),
  ('AHFF', 'enrichment ratio', '≤ 0.25'),
  ('ADQL', 'enrichment ratio', '≤ 0.25'),
  ('FCVK', 'enrichment ratio', '≤ 0.25'),
  ('TGQL', 'enrichment ratio', 5.01),
  ('ATPM', 'enrichment ratio', 0.758),
  ('LYHH', 'enrichment ratio', '≤ 0.25'),
  ('YPYC', 'enrichment ratio', '≤ 0.25'),
  ('ADQP', 'enrichment ratio', '≤ 0.25'),
  ('GNYI', 'enrichment ratio', '≤ 0.25'),
  ('AEVY', 'enrichment ratio', 6.64),
  ('LKVT', 'enrichment ratio', '≤ 0.25'),
  ('FSGY', 'enrichment ratio', '≤ 0.25'),
  ('AEKC', 'enrichment ratio', '≤ 0.25'),
  ('AEVA', 'enrichment ratio', '≤ 0.25'),
  ('AKQL', 'enrichment ratio', '≤ 0.25'),
  ('AHDV', 'enrichment ratio', '≤ 0.25'),
  ('CGQL', 'enrichment ratio', 14.3),
  ('ATNR', 'enrichment ratio', '≤ 0.25'),
  ('GNCI', 'enrichment ratio', 14.4),
  ('RTQY', 'enrichment ratio', '≤ 0.25'),
  ('ATTM', 'enrichment ratio', 16.6),
  ('AESS', 'enrichment ratio', 16.3),
  ('QING', 'enrichment ratio', '≤ 0.25'),
  ('AIQL', 'enrichment ratio', 11.7),
  ('GHTM', 'enrichment ratio', '≤ 0.25'),
  ('YSIQ', 'enrichment ratio', '≤ 0.25'),
  ('WIQL', 'enrichment ratio', '≤ 0.25'),
  ('GTCA', 'enrichment ratio', '≤ 0.25'),
  ('ANTM', 'enrichment ratio', 44),
  ('GTCI', 'enrichment ratio', 11.7),
  ('GNTM', 'enrichment ratio', 1.94),
  ('GNLT', 'enrichment ratio', 16.5),
  ('GNNT', 'enrichment ratio', '≤ 0.25'),
  ('NKSN', 'enrichment ratio', '≤ 0.25'),
  ('ATWM', 'enrichment ratio', '≤ 0.25'),
  ('AESQ', 'enrichment ratio', 4.68),
  ('AEVS', 'enrichment ratio', 16.2);
